Catalogue of substances with associated % cleavage MMP-7 t = 15 min
Biological target: MMP-7 (Homo sapiens)
Construct: purchased SIGMA CC1059
Sequence (P09237 95-267): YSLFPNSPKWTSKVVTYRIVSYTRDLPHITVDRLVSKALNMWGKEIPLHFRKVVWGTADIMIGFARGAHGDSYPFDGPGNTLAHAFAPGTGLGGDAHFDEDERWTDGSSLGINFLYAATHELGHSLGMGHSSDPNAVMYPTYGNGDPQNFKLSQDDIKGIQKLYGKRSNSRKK
Experiment: FRET peptide cleavage efficiency with MMP-7 (standard pH 7.5; also pH 6.5)
Assay type: biochemical
Conditions: t = 15 min (Table 9)
Square brackets hold non-standard residues; d marks the D form. Ends that are not written are not given here. Tyr(3-NO2) = N[C@@H](Cc1ccc(O)c([N+](=O)[O-])c1)C(=O)O; Nle = CCCC[C@H](N)C(=O)O; 2Abz = Nc1ccccc1C(=O)O
Supply the numeric figure in %, leaving out any unit text.

# annotated cases, reported % cleavage MMP-7 t = 15 min shown
SGRVAPQPLVD (not fully specified (N-terminus, C-terminus)) [LNK046] = 77
RGRRPLGYFGKL ([2Abz]RGRRPLGYFGKL[Tyr(3-NO2)]-NH2) [LNK057] = 0
RGRRHSSKLQ ([2Abz]RGRRHSSKLQ[Tyr(3-NO2)]-NH2) [LNK052] = 0

Retrieve % cleavage MMP-7 t = 15 min measured for SGRPLGYFGKL ([2Abz]SGRPLGYFGKL[Tyr(3-NO2)]-NH2) [LNK056] and print it.
0

Retrieve % cleavage MMP-7 t = 15 min measured for RGRKSQPLVD ([2Abz]RGRKSQPLVD[Tyr(3-NO2)]-NH2) [LNK041] and print it.
1

Retrieve % cleavage MMP-7 t = 15 min measured for SGRVAPY-Nle-LQG ([2Abz]SGRVAPY[Nle]LQG[Tyr(3-NO2)]-NH2) [LNK043] and print it.
61

Retrieve % cleavage MMP-7 t = 15 min measured for SGRVAPYMLQG ([2Abz]SGRVAPYMLQG[Tyr(3-NO2)]-NH2) [LNK042] and print it.
59

Retrieve % cleavage MMP-7 t = 15 min measured for SGRHSSKLQPLGYFGKL ([2Abz]SGRHSSKLQPLGYFGKL[Tyr(3-NO2)]-NH2) [LNK063] and print it.
2

----------
Target: uPA (Homo sapiens, UniProt P00749)
Assay: FRET peptide cleavage efficiency with uPA
Assay type: biochemical
Details: t = 15 min; 200 uM linker, 1 ug/ml protease, 37° C., buffer A pH 8.5
Square brackets hold non-standard residues; d marks the D form. Ends that are not written are not given here. Tyr(3-NO2) = N[C@@H](Cc1ccc(O)c([N+](=O)[O-])c1)C(=O)O; 2Abz = Nc1ccccc1C(=O)O
metric: % cleavage uPA t = 15 min (%)
Supply the numeric figure in %, leaving out any unit text.

# annotated cases, reported % cleavage uPA t = 15 min shown
SSRGPASNRRLPLGLAG ([2Abz]SSRGPASNRRLPLGLAG[Tyr(3-NO2)]-NH2) [LNK001] = 4
RQRRSVVGG ([2Abz]RQRRSVVGG[Tyr(3-NO2)]-NH2) [LNK029] = 0
RQRRSAPLGLAG ([2Abz]RQRRSAPLGLAG[Tyr(3-NO2)]-NH2) [LNK009] = 0
PASNRRLPLGLAG ([2Abz]PASNRRLPLGLAG[Tyr(3-NO2)]-NH2) [LNK018] = 0
RGRRPLGYFGKL ([2Abz]RGRRPLGYFGKL[Tyr(3-NO2)]-NH2) [LNK057] = 0
SGRVLRKAGPQPLVD ([2Abz]SGRVLRKAGPQPLVD[Tyr(3-NO2)]-NH2) [LNK003] = 3
HSSKLQL ([2Abz]HSSKLQL[Tyr(3-NO2)]-NH2) [LNK078] = 0
RRLHYSL ([2Abz]RRLHYSL[Tyr(3-NO2)]-NH2) [LNK073] = 0
SGRHSSKLQPLGYFGKL ([2Abz]SGRHSSKLQPLGYFGKL[Tyr(3-NO2)]-NH2) [LNK063] = 0

Retrieve % cleavage uPA t = 15 min measured for RQRRSPLGLAG ([2Abz]RQRRSPLGLAG[Tyr(3-NO2)]-NH2) [LNK010] and print it.
0

----------
Molecular target: matriptase (Homo sapiens)
Construct: purchased R&D Systems 3946-SEB
Sequence (Q9Y5Y6 615-855 limits assumed): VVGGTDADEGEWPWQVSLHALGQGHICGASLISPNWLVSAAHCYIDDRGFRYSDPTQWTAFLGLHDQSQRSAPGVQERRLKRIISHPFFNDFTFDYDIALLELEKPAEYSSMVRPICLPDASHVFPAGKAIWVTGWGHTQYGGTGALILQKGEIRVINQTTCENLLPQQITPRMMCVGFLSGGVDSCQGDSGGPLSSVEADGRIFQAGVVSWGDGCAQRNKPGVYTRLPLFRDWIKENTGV
Test: FRET peptide cleavage efficiency with matriptase
Type: biochemical
Details: pH 7.5; t = 60 min (Table 7)
Square brackets hold non-standard residues; d marks the D form. Ends that are not written are not given here. Tyr(3-NO2) = N[C@@H](Cc1ccc(O)c([N+](=O)[O-])c1)C(=O)O; 2Abz = Nc1ccccc1C(=O)O
metric: % cleavage Matriptase t = 60 min (%)
Supply the numeric figure in %, leaving out any unit text.

SGRVLRKAGPQPLVD ([2Abz]SGRVLRKAGPQPLVD[Tyr(3-NO2)]-NH2) [LNK003] = 100
RQRRSPLGLAG ([2Abz]RQRRSPLGLAG[Tyr(3-NO2)]-NH2) [LNK010] = 100
SSRGPYMLQG ([2Abz]SSRGPYMLQG[Tyr(3-NO2)]-NH2) [LNK022] = 0
SGRVANLVG (not fully specified (N-terminus, C-terminus)) [LNK017] = 68
SGRVLRKAGPANLVG ([2Abz]SGRVLRKAGPANLVG[Tyr(3-NO2)]-NH2) [LNK014] = 100
SSRGRRGPYMLQG ([2Abz]SSRGRRGPYMLQG[Tyr(3-NO2)]-NH2) [LNK021] = 100

For the next question, use this sequence.
Retrieve % cleavage Matriptase t = 60 min measured for SGRVAGLVG ([2Abz]SGRVAGLVG[Tyr(3-NO2)]-NH2) [LNK016] and print it.
54

----------
Biological target: MMP-7 (Homo sapiens, UniProt P09237)
Construct: purchased SIGMA CC1059
Sequence (P09237 95-267): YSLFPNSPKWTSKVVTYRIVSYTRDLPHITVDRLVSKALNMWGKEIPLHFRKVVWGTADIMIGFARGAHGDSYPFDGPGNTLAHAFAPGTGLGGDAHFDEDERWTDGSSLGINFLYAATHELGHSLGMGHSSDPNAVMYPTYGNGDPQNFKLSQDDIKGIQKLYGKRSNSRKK
Assay: FRET peptide cleavage efficiency with MMP-7 (standard pH 7.5; also pH 6.5)
Type: biochemical
Conditions: t = 60 min (Table 9)
Square brackets hold non-standard residues; d marks the D form. Ends that are not written are not given here. Tyr(3-NO2) = N[C@@H](Cc1ccc(O)c([N+](=O)[O-])c1)C(=O)O; Nle = CCCC[C@H](N)C(=O)O; 2Abz = Nc1ccccc1C(=O)O
Catalogue of substances with associated % cleavage MMP-7 t = 60 min

# annotated cases, reported % cleavage MMP-7 t = 60 min shown
SGRVANLVG (not fully specified (N-terminus, C-terminus)) [LNK017] = 96%
RGRRVANPLGYFGKL ([2Abz]RGRRVANPLGYFGKL[Tyr(3-NO2)]-NH2) [LNK058] = 0%
RGRRPLGYFGKL ([2Abz]RGRRPLGYFGKL[Tyr(3-NO2)]-NH2) [LNK057] = 0%

Write down the reported % cleavage MMP-7 t = 60 min (system: MMP-7 (Homo sapiens, UniProt P09237)) of RGRKPY-Nle-LQG ([2Abz]RGRKPY[Nle]LQG[Tyr(3-NO2)]-NH2) [LNK036]
88%

Write down the reported % cleavage MMP-7 t = 60 min (system: MMP-7 (Homo sapiens, UniProt P09237)) of RGRRVANPLGLAGSG ([2Abz]RGRRVANPLGLAGSG[Tyr(3-NO2)]-NH2) [LNK050]
3%

Write down the reported % cleavage MMP-7 t = 60 min (system: MMP-7 (Homo sapiens, UniProt P09237)) of RGRKSPQPLVD ([2Abz]RGRKSPQPLVD[Tyr(3-NO2)]-NH2) [LNK040]
74%

Write down the reported % cleavage MMP-7 t = 60 min (system: MMP-7 (Homo sapiens, UniProt P09237)) of SGRVAPYMLQG ([2Abz]SGRVAPYMLQG[Tyr(3-NO2)]-NH2) [LNK042]
100%

Write down the reported % cleavage MMP-7 t = 60 min (system: MMP-7 (Homo sapiens, UniProt P09237)) of RGRRVANYFGKL ([2Abz]RGRRVANYFGKL[Tyr(3-NO2)]-NH2) [LNK055]
0%
